FYI, the data here is from patent US12466840B2.

Overview of reported pIC50 across a group of compounds:
- tested-system: KRAS Q61H (Homo sapiens (Human), UniProt P01116, Q61H)
- Sequence (P01116 other isoform, or with tags, fused parts or gaps Q61H (already in the parent)): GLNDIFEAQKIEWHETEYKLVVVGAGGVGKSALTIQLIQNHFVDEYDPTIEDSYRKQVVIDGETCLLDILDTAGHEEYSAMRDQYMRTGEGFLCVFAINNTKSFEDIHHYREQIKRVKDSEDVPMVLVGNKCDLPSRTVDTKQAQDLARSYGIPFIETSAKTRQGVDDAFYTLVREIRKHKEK
- test-details: SOS-catalyzed nucleotide exchange assay (GNE), KRAS Q61H
- experimental-setup: TR-FRET, 60 min preincubation
- Experimental: Procedure for SOS-Catalyzed Nucleotide Exchange Assay for KRAS-WT, G12C/D/V/A/R/S, G13D, Q61H, HRAS-WT, and NRAS-WT Recombinant KRAS-G12C protein used in this assay has an additional triple mutation (C51S/C80L/C118S). […] The time-resolved fluorescence resonance energy transfer (TR-FRET) signal is measured on an Envision (PerkinElmer) plate reader: Excitation filter=340 nm; emission1=495 nm; emission2=520 nm; dichroic mirror=D400/D505; delay time=100 ms. […]
pIC50: −log10 of the molar value.
observable: pIC50

INSERT INTO measurements (compound_smiles, tested_system, observable, recorded_measurement) VALUES
  ('CCc1c(F)ccc2cc3[nH]nc(C)c3c(-c3nc4c5c(nc(OC[C@@]67CCCN6C[C@H](F)C7)nc5c3F)N3CCCOC[C@H]3CO4)c12', 'KRAS Q61H (Homo sapiens (Human), UniProt P01116, Q61H)', 'pIC50', 8.74),
  ('CCc1c(F)ccc2cc3[nH]ncc3c(-c3nc4c5c(nc(OC[C@@]67CCCN6C/C(=C\F)C7)nc5c3F)N3CCCOC[C@H]3CO4)c12', 'KRAS Q61H (Homo sapiens (Human), UniProt P01116, Q61H)', 'pIC50', 9.00),
  ('CCc1c(F)ccc2cc3[nH]nc(C)c3c(-c3nc4c5c(nc(OC[C@@]67CCCN6C/C(=C\F)C7)nc5c3F)N3CCCOC[C@H]3CO4)c12', 'KRAS Q61H (Homo sapiens (Human), UniProt P01116, Q61H)', 'pIC50', 8.55),
  ('F/C=C1/CN2CCC[C@@]2(COc2nc3c4c(nc(-c5c(C6CC6)c(Cl)cc6[nH]ncc56)c(F)c4n2)OC[C@@H]2COCCCN32)C1', 'KRAS Q61H (Homo sapiens (Human), UniProt P01116, Q61H)', 'pIC50', 8.85),
  ('CCc1c(F)ccc2cc3[nH]ncc3c(-c3nc4c5c(nc(OC[C@@]67CCCN6C[C@H](F)C7)nc5c3F)N3CCCOC[C@H]3CO4)c12', 'KRAS Q61H (Homo sapiens (Human), UniProt P01116, Q61H)', 'pIC50', 8.92),
  ('F/C=C1\CN2CCC[C@@]2(COc2nc3c4c(nc(-c5c(C6(F)CC6)c(Cl)cc6[nH]ncc56)c(F)c4n2)OC[C@@H]2COCCCN32)C1', 'KRAS Q61H (Homo sapiens (Human), UniProt P01116, Q61H)', 'pIC50', 9.01);

---

- Tested on: AsPC-1 cells (homozygous KRAS-G12D)
- test-details: Cellular phospho-ERK assay, AsPC-1 cells
- Assay type: cell-based
- experimental-setup: Homo sapiens, ASPC1, 2 h, p-ERK vs. total ERK, read-out: AsPC1 pERK IC50
pIC50: −log10 of the molar value.
observable: pIC50

INSERT INTO assay_data (compound_smiles, recorded_measurement) VALUES
  ('Fc1c(-c2c(C3CC3)c(Cl)cc3[nH]ncc23)nc2c3c(nc(OC[C@@]45CCCN4C[C@H](F)C5)nc13)N1CCCOC[C@H]1CO2', 7.82),
  ('CCc1c(F)ccc2cc3[nH]ncc3c(-c3nc4c5c(nc(OC[C@@]67CCCN6C/C(=C\F)C7)nc5c3F)N3CCCOC[C@H]3CO4)c12', 8.66),
  ('F/C=C1\CN2CCC[C@@]2(COc2nc3c4c(nc(-c5c(C6(F)CC6)c(Cl)cc6[nH]ncc56)c(F)c4n2)OC[C@@H]2COCCCN32)C1', 8.49),
  ('CCc1c(F)ccc2cc3[nH]nc(C)c3c(-c3nc4c5c(nc(OC[C@@]67CCCN6C[C@H](F)C7)nc5c3F)N3CCCOC[C@H]3CO4)c12', 8.02);

---

Overview of reported pIC50 across a group of compounds:
- tested-system: KRAS G12C (Homo sapiens (Human), UniProt P01116, C118S/C51S/C80L/G12C)
- Sequence (P01116 other isoform, or with tags, fused parts or gaps, stated change not applied): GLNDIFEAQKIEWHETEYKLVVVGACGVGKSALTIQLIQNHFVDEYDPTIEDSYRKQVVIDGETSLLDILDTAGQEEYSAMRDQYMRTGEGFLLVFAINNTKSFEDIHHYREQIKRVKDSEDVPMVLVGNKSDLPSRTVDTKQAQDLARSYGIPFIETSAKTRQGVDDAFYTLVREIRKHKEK
- test-details: SOS-catalyzed nucleotide exchange assay (GNE), KRAS G12C
- experimental-setup: TR-FRET, 60 min preincubation; protein with C51S/C80L/C118S
pIC50: −log10 of the molar value.
observable: pIC50

INSERT INTO assay_data (compound_smiles, tested_system, recorded_measurement) VALUES
  ('CCc1c(F)ccc2cc3[nH]ncc3c(-c3nc4c5c(nc(OC[C@@]67CCCN6C/C(=C\F)C7)nc5c3F)N3CCCOC[C@H]3CO4)c12', 'KRAS G12C (Homo sapiens (Human), UniProt P01116, C118S/C51S/C80L/G12C)', 8.54),
  ('CCc1c(F)ccc2cc3[nH]ncc3c(-c3nc4c5c(nc(OC[C@@]67CCCN6C[C@H](F)C7)nc5c3F)N3CCCOC[C@H]3CO4)c12', 'KRAS G12C (Homo sapiens (Human), UniProt P01116, C118S/C51S/C80L/G12C)', 8.49),
  ('CCc1c(F)ccc2cc3[nH]nc(C)c3c(-c3nc4c5c(nc(OC[C@@]67CCCN6C[C@H](F)C7)nc5c3F)N3CCCOC[C@H]3CO4)c12', 'KRAS G12C (Homo sapiens (Human), UniProt P01116, C118S/C51S/C80L/G12C)', 8.19),
  ('CCc1c(F)ccc2cc3[nH]nc(C)c3c(-c3nc4c5c(nc(OC[C@@]67CCCN6C/C(=C\F)C7)nc5c3F)N3CCCOC[C@H]3CO4)c12', 'KRAS G12C (Homo sapiens (Human), UniProt P01116, C118S/C51S/C80L/G12C)', 7.96),
  ('F/C=C1\CN2CCC[C@@]2(COc2nc3c4c(nc(-c5c(C6(F)CC6)c(Cl)cc6[nH]ncc56)c(F)c4n2)OC[C@@H]2COCCCN32)C1', 'KRAS G12C (Homo sapiens (Human), UniProt P01116, C118S/C51S/C80L/G12C)', 8.48),
  ('F/C=C1/CN2CCC[C@@]2(COc2nc3c4c(nc(-c5c(C6CC6)c(Cl)cc6[nH]ncc56)c(F)c4n2)OC[C@@H]2COCCCN32)C1', 'KRAS G12C (Homo sapiens (Human), UniProt P01116, C118S/C51S/C80L/G12C)', 8.16);

---

- tested-system: KRAS G12D (Homo sapiens (Human), UniProt P01116, G12D)
- Sequence (P01116 other isoform, or with tags, fused parts or gaps G12D (already in the parent)): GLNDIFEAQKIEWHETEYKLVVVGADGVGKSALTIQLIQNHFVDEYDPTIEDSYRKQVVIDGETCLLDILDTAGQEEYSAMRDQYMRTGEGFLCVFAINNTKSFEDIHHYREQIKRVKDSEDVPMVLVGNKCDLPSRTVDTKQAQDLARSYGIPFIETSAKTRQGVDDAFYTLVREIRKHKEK
- test-details: SOS-catalyzed nucleotide exchange assay (GNE), KRAS G12D
- experimental-setup: TR-FRET, 60 min preincubation
pIC50: −log10 of the molar value.
Overview of reported pIC50 across a group of compounds:
observable: pIC50

INSERT INTO results (compound_smiles, observable, result_qualifier, recorded_measurement) VALUES
  ('CCc1c(F)ccc2cc3[nH]ncc3c(-c3nc4c5c(nc(OC[C@@]67CCCN6C/C(=C\F)C7)nc5c3F)N3CCCOC[C@H]3CO4)c12', 'pIC50', '>', 9.16),
  ('F/C=C1\CN2CCC[C@@]2(COc2nc3c4c(nc(-c5c(C6(F)CC6)c(Cl)cc6[nH]ncc56)c(F)c4n2)OC[C@@H]2COCCCN32)C1', 'pIC50', '>', 9.16),
  ('Fc1c(-c2c(C3CC3)c(Cl)cc3[nH]ncc23)nc2c3c(nc(OC[C@@]45CCCN4C[C@H](F)C5)nc13)N1CCCOC[C@H]1CO2', 'pIC50', '=', 8.89),
  ('F/C=C1/CN2CCC[C@@]2(COc2nc3c4c(nc(-c5c(C6CC6)c(Cl)cc6[nH]ncc56)c(F)c4n2)OC[C@@H]2COCCCN32)C1', 'pIC50', '=', 9.17);
